The measured values listed here are drawn from PubChem BioAssay.

assay: antimalarial activity against Dd2 strain (AID 2302);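 note: 0% = DMSO untreated growth and 100% = chloroquine plus artemisinin killed control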; settings: P. falciparum Dd2 in RBCs, LDH growth readout, 72 h; at 2 µM; active compounds read high
quantity.measured: growth inhibition (%)

>  <compound>
CS(=O)(=O)CCNCc1cccc(-c2ccc3c(Nc4ccc(Oc5ccccc5)cc4)ccnc3c2)c1

>  <result>
96

$$$$
>  <compound>
CCC(C)(CC)C(=O)n1ncc2c3c(N)nc(N)nc3ccc21

>  <result>
6

$$$$
>  <compound>
CN1CCN(CCCCNc2c3ccccc3nc3ccccc23)CC1

>  <result>
-7

$$$$
>  <compound>
CN(C)Cc1ccc2nc(-c3cccc(Cc4cc(Cl)ccc4OCc4ccc(Cl)cc4F)n3)[nH]c2c1

>  <result>
26

$$$$
>  <compound>
O=C(CNC(=O)c1ccc(O)cc1)Nc1ccc(-c2cccc(-c3nc4ccc(C(F)(F)F)cc4[nH]3)c2)cc1

>  <result>
47

$$$$
>  <compound>
COc1cc(NC(=O)c2sc(-c3ccc(Cl)cc3)cc2NC(=O)c2cccnc2)ccc1OCCN1CCCC1

>  <result>
77

$$$$
>  <compound>
CCCCCCc1cc2cc(-c3csc(C=Cc4ccccc4)n3)c(=O)oc2cc1O

>  <result>
75

$$$$
>  <compound>
CC(C)c1ccc(NC(=O)c2cccc(CN3CCCN(CC4CCCCC4)CC3)c2)cc1

>  <result>
59

$$$$
>  <compound>
CCOC(=O)/C(=N\OC(C)(C)C(=O)NCc1ccc(O)c(O)c1)c1csc(NC(c2ccccc2)(c2ccccc2)c2ccccc2)n1

>  <result>
99

$$$$
>  <compound>
Cc1cc(N2CCCN(C)CC2)nc(Nc2ccc(Cl)cc2)n1

>  <result>
11

$$$$
>  <compound>
Cc1cccc2[nH]c(-c3ccc(-c4ccc(NC(=O)NCc5cccc(F)c5)cc4)cc3)nc12

>  <result>
12

$$$$
>  <compound>
CC(C)=CC1C(C(=O)n2c(N)nc3ccccc32)C1(C)C (stereo unspecified)

>  <result>
3

$$$$
>  <compound>
COc1ccc(S(=O)(=O)N2CCC3(CC2)OCC(=O)NC3c2ccc(Cl)c(Cl)c2)cc1 (stereo unspecified)

>  <result>
44

$$$$
>  <compound>
COc1cc(NC(=O)Nc2ccc(Br)cc2C(=O)Nc2ccc(Br)cc2)cc(OC)c1OC

>  <result>
98

$$$$
>  <compound>
CN1CCN(c2ccc(-c3cc(-c4cc(F)c(F)c(F)c4)cnc3N)cc2)CC1

>  <result>
12

$$$$
>  <compound>
Cc1ccc2cc(C3NC(=O)c4ccccc4N3)c(Cl)nc2c1 (stereo unspecified)

>  <result>
38

$$$$
>  <compound>
Nc1c(C(=O)NCCCCN2CCN(c3nsc4ccccc34)CC2)sc2ccccc12

>  <result>
-6

$$$$
>  <compound>
COc1ccccc1N1CCN(C(C(=O)NCc2cccc(F)c2)c2ccc(C)cc2)CC1 (stereo unspecified)

>  <result>
80

$$$$
>  <compound>
Fc1ccc2[nH]c(-c3ccccc3)nc2c1CN1CCC(N2CCCC2)CC1

>  <result>
30

$$$$
>  <compound>
Cc1cccc2[nH]c(-c3ccc(-c4cccc(C(=O)N5CCCCC5C(C)O)c4)s3)nc12 (stereo unspecified)

>  <result>
53

$$$$
>  <compound>
Cc1ccc(Cl)cc1NC(=O)c1c(-c2ccccc2Cl)noc1C

>  <result>
37

$$$$
>  <compound>
COC(=O)c1cccc(CNCc2ccc(-c3ccc(-c4nc5c(C)cccc5[nH]4)cc3)cc2)c1

>  <result>
86

$$$$
>  <compound>
O=[N+]([O-])c1cccc(CNCC2CCN(Cc3ccc(O)cc3)CC2)c1

>  <result>
5

$$$$
>  <compound>
COCCn1c(C)cc(C(=O)CN2C(=O)NC(C)(c3ccc(C(C)(C)C)cc3)C2=O)c1C (stereo unspecified)

>  <result>
96

$$$$
>  <compound>
CS(=O)(=O)c1cccc(-c2ccc3oc(C(N)=O)c(NC(=O)c4cccs4)c3c2)c1

>  <result>
77

$$$$
>  <compound>
COc1ccc(COc2c(OC)cc(Cc3cnc(N)nc3N)cc2OC)cc1

>  <result>
23

$$$$
>  <compound>
C=CCOC(=O)N1CCC(CNCc2cccc(-c3ccc(-c4nc5ccc(C(F)(F)F)cc5[nH]4)cc3)c2)C1 (stereo unspecified)

>  <result>
96

$$$$
>  <compound>
N#Cc1ccc(NC(=NCCc2c[nH]c3ccccc23)Nc2ccc(-c3ccccc3)cc2)c(O)c1

>  <result>
75

$$$$
>  <compound>
COc1ccc(NS(=O)(=O)c2ccc(C(=O)Nc3ccc(OC(F)(F)F)cc3)cc2)cc1N1CCN(CC2CC2)CC1

>  <result>
-2

$$$$
>  <compound>
CC(C)CCCC(C)(C)NC[C@@H](O)[C@H](Cc1ccccc1)NC(=O)c1cc(NC(C)C)cc(N2CCCCS2(=O)=O)c1F

>  <result>
99

$$$$
>  <compound>
COc1cccc(-c2ccc(C(=O)NCC3CCCN(Cc4cccc(C(F)(F)F)c4)C3)s2)c1 (stereo unspecified)

>  <result>
18

$$$$
